normalized RNA/DNA level without ligand (log10) by entry:
B1: library; a variant is named by its letters at N, in order (parent)
chain: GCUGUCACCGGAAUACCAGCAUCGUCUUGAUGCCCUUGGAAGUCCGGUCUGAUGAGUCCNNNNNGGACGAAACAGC

variants of: B1; assay: normalized RNA/DNA level without ligand (relative to sTRSVctl = 100) (log10 (% of sTRSVctl)); higher = less ribozyme self-cleavage, higher mRNA level; conditions: HEK293T, reporter: mCherry (pCS4076), ligand present: no
Give a plain numeric answer without units written out.

Check out these entries, answers already filled in.
{"columns": ["variant name", "recorded number"],
 "data": [
  ["AUCGG", 1.87],
  ["UGAGU", 1.86],
  ["UAAAU", 1.84],
  ["CUAUA", 1.61],
  ["ACGUA", 1.62],
  ["CCCUC", 2.11],
  ["GUAAA", 1.7],
  ["AUAAA", 1.4]
]}

Entry `UACAG` , normalized RNA/DNA level without ligand (log10) reported as 1.91
